Data credit: the Immune Epitope Database (IEDB)

- tgt: HLA-B*07:02
- run-description: IEDB peptide-MHC binding, purified MHC/competitive/radioactivity; filed as Kd, often an IC50 or EC50 that approximates it; bounds were set here for any values at or beyond the usual limits of such assays
- condition-parameters: source organism: Dengue virus 2 Jamaica/1409/1983
endpoint-name: Kd
Please state the value followed by its unit.

Exercise: State, in one line, measured Kd of `SPPPVGKAEL`
Solution: 67.3 nM

###

- tgt: HLA-B*40:01
- run-description: IEDB peptide-MHC binding, purified MHC/direct/fluorescence; filed as Kd, often an IC50 or EC50 that approximates it; bounds were set here for any values at or beyond the usual limits of such assays
- condition-parameters: source organism: Shigella flexneri
endpoint-name: Kd (µM)
Answers are plain numbers, in µM.

Exercise: Please look at `DRLHPPNKL` and tell me its recorded Kd on HLA-B*40:01.
Solution: 4.25

###

- tgt: HLA-B*08:02
- run-description: IEDB peptide-MHC binding, purified MHC/direct/fluorescence; filed as Kd, often an IC50 or EC50 that approximates it; bounds were set here for any values at or beyond the usual limits of such assays
- condition-parameters: source organism: Rickettsia sibirica 246
pKd: −log10 of the molar value.
endpoint-name: pKd

Exercise: State, in one line, measured pKd of `SSSGMDAYY`
Solution: ≤ 4.70

###

- tgt: HLA-B*40:01
- run-description: IEDB peptide-MHC binding, purified MHC/direct/fluorescence; filed as Kd, often an IC50 or EC50 that approximates it; bounds were set here for any values at or beyond the usual limits of such assays
- condition-parameters: source organism: Yersinia enterocolitica
endpoint-name: Kd

Exercise: State, in one line, measured Kd of `RIYSHIAPY`
Solution: ≥ 20 µM

###

- tgt: HLA-B*07:02
- run-description: IEDB peptide-MHC binding, purified MHC/direct/fluorescence; filed as Kd, often an IC50 or EC50 that approximates it; bounds were set here for any values at or beyond the usual limits of such assays
- condition-parameters: source organism: Camelpox virus CMS
endpoint-name: Kd

Exercise: State, in one line, measured Kd of `RVFDKADGK`
Solution: ≥ 20 µM

###

- tgt: HLA-A*32:01
- run-description: IEDB peptide-MHC binding, purified MHC/competitive/radioactivity; filed as Kd, often an IC50 or EC50 that approximates it; bounds were set here for any values at or beyond the usual limits of such assays
- condition-parameters: source organism: Vaccinia virus WR
pKd: −log10 of the molar value.
Parameter threshold = 8. Response is true when pKd meets or exceeds it, else false.

| chain-sequence | answer-label |
| --- | --- |
| WSIYLSLHY | false |
| VIWILIVAI | false |
| LLKDRNELF | false |
| RSFEIINVL | true |
| MVKNNKIQK | false |
| YQSLSPPPF | false |

Exercise: Kindly determine if pKd recorded for `ISESRFQSL` is above or exactly 8.
Solution: false

Exercise: Kindly determine if pKd recorded for `RLINNRVLF` is above or exactly 8.
Solution: true

Exercise: Kindly determine if pKd recorded for `QIVAYFSEF` is above or exactly 8.
Solution: false

###

- tgt: HLA-A*24:02
- run-description: IEDB peptide-MHC binding, purified MHC/direct/fluorescence; filed as Kd, often an IC50 or EC50 that approximates it; bounds were set here for any values at or beyond the usual limits of such assays
- condition-parameters: source organism: Influenza A virus (A/duck/Mongolia/47/2001(H7N1))
endpoint-name: Kd

Exercise: State, in one line, measured Kd of `THFQRKRRV`
Solution: ≥ 20 µM

###

- tgt: HLA-B*15:01
- run-description: IEDB peptide-MHC binding, purified MHC/direct/fluorescence; filed as Kd, often an IC50 or EC50 that approximates it; bounds were set here for any values at or beyond the usual limits of such assays
- condition-parameters: source organism: Isla Vista hantavirus
pKd: −log10 of the molar value.
endpoint-name: pKd

Exercise: Please look at `SSLRYGNVL` and tell me its recorded pKd on HLA-B*15:01.
Solution: ≤ 4.70

###

- tgt: HLA-B*15:02
- run-description: IEDB peptide-MHC binding, purified MHC/competitive/fluorescence; filed as Kd, often an IC50 or EC50 that approximates it; bounds were set here for any values at or beyond the usual limits of such assays
- condition-parameters: source organism: Francisella tularensis subsp. tularensis FSC198
endpoint-name: Kd

Exercise: State, in one line, measured Kd of `MIYNSFNPY`
Solution: ≥ 20 µM

###

- tgt: HLA-B*39:01
- run-description: IEDB peptide-MHC binding, purified MHC/competitive/fluorescence; filed as Kd, often an IC50 or EC50 that approximates it; bounds were set here for any values at or beyond the usual limits of such assays
- condition-parameters: source organism: Yersinia pestis Nepal516
endpoint-name: pKd
Numbers only, as −log10 of the molar value.

Exercise: State, in one line, measured pKd of `FASASSYAI`
Solution: 8.13

###

- tgt: HLA-B*40:01
- run-description: IEDB peptide-MHC binding, purified MHC/competitive/radioactivity; filed as Kd, often an IC50 or EC50 that approximates it; bounds were set here for any values at or beyond the usual limits of such assays
- condition-parameters: source organism: Mammarenavirus guanaritoense
Please go through the items and note down their Kd.

| chain-sequence | tgt | Kd |
| --- | --- | --- |
| ADSLDFTQV | HLA-B*40:01 | ≥ 64.9 µM |
| RDLVISDSS | HLA-B*40:01 | ≥ 53.4 µM |

Now turn to the next sequence.
Exercise: State, in one line, measured Kd of `PEFDWILGW`
Solution: ≥ 76.1 µM

###

- tgt: HLA-A*69:01
- run-description: IEDB peptide-MHC binding, purified MHC/competitive/fluorescence; filed as Kd, often an IC50 or EC50 that approximates it; bounds were set here for any values at or beyond the usual limits of such assays
- condition-parameters: source organism: Rickettsia sibirica 246
endpoint-name: Kd

Exercise: State, in one line, measured Kd of `SVANIDRIK`
Solution: ≥ 20 µM

###

- tgt: HLA-A*33:01
- run-description: IEDB peptide-MHC binding, purified MHC/competitive/radioactivity; filed as Kd, often an IC50 or EC50 that approximates it; bounds were set here for any values at or beyond the usual limits of such assays
- condition-parameters: source organism: SARS coronavirus Tor2
Flag rule - Kd less than 1000 nM flags 1.0; the remaining entries get 0.0.

Some entries whose results are on file:
| chain-sequence | tgt | answer-label |
| --- | --- | --- |
| GMSYYCKSHK | HLA-A*33:01 | 0.0 |
| MLLQFAYSNR | HLA-A*33:01 | 1.0 |
| YFVCWHTHNY | HLA-A*33:01 | 0.0 |
| AIVCRFDTR | HLA-A*33:01 | 1.0 |
| RLYECLYRNR | HLA-A*33:01 | 0.0 |
| QQQGQTVTK | HLA-A*33:01 | 0.0 |
| TVYVYSRVK | HLA-A*33:01 | 0.0 |
| ALSTNHGHK | HLA-A*33:01 | 0.0 |
| KVKYLYFIK | HLA-A*33:01 | 0.0 |
| KTNCCRFQEK | HLA-A*33:01 | 0.0 |

Proceed to the following item.
Exercise: Please state whether Kd is below 1000 nM for `TQNVLYENQK`
Solution: 0.0

###

- tgt: HLA-B*07:02
- run-description: IEDB peptide-MHC binding, purified MHC/competitive/radioactivity; filed as Kd, often an IC50 or EC50 that approximates it; bounds were set here for any values at or beyond the usual limits of such assays
- condition-parameters: source organism: Vaccinia virus WR
Please go through the items and note down their pKd.
One number for each entry, as −log10 of the molar value.

Sample records with pKd:
| chain-sequence | pKd |
| --- | --- |
| CPQKKKSQA | 6.98 |
| LPNVQFVDI | 5.57 |

Batch of 2 sequences: report pKd for each.
1. EPSGNNYHI
2. APKQVAGTGV

Solution:
5.85
7.96

###

- tgt: HLA-A*26:01
- run-description: IEDB peptide-MHC binding, purified MHC/competitive/radioactivity; filed as Kd, often an IC50 or EC50 that approximates it; bounds were set here for any values at or beyond the usual limits of such assays
- condition-parameters: source organism: Dengue virus 3 Sri Lanka/1266/2000
endpoint-name: Kd (nM)
Numbers only, in nM.

Exercise: State, in one line, measured Kd of `ETYQLWTALV`
Solution: 56.6

###

- tgt: HLA-C*03:03
- run-description: IEDB peptide-MHC binding, purified MHC/direct/fluorescence; filed as Kd, often an IC50 or EC50 that approximates it; bounds were set here for any values at or beyond the usual limits of such assays
- condition-parameters: source organism: Zaire ebolavirus
endpoint-name: Kd (nM)
Numbers only, in nM.

Exercise: State, in one line, measured Kd of `FLSFASLFL`
Solution: 5
